Molecular target: T1, EWS RRM (UniProt Q01844 361-447)
T1 sequence: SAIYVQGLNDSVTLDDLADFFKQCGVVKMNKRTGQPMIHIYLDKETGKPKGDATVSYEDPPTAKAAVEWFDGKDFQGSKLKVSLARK
Test: ITC
Assay Endpoint: Kd (µM)
Give the value, in units of µM, as a plain number.

# input Sample TAAGGGAGGGCGGGAGGGAA (structured_DNA) [pu20m2 DNA G4] — what was its Kd?
# output 22.3
